Target: CHKA (Homo sapiens, UniProt P35790)
Sequence (P35790 75-457 limits assumed): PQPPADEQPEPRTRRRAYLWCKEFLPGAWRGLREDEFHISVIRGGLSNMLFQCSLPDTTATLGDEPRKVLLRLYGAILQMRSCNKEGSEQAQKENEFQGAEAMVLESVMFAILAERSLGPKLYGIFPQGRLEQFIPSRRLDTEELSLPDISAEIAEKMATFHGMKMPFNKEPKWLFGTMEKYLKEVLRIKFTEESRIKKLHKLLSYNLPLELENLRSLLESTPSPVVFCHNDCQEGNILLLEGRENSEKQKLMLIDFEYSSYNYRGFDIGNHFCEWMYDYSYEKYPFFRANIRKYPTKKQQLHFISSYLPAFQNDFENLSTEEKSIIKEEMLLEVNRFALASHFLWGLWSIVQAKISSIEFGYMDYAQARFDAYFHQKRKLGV
Assay: Differential scanning fluorimetry (DSF)
Format: binding
Set-up: host or cells: E. coli BL21(DE3)
Details: 10 µM compound, 2 µM CHKA
readout.type: thermal stabilisation of CHKA (DSF)

Exam item: Given the compound COc1cc2c(N(C)C3CCN(C(C)C)CC3)nc(C3CCCCC3)nc2cc1OCCCN1CCCC1 [UNC0737] , write its reported thermal stabilisation of CHKA (DSF).
Marked response: thermal stabilisation

Exam item: Quickly give me recorded thermal stabilisation of CHKA (DSF) for COc1cc2c(NC3CCN(C(C)C)CC3)nc(C3CCCCC3)nc2cc1OCCCN1CCCC1 [UNC0638]
Marked response: thermal stabilisation

Exam item: Specify measured thermal stabilisation of CHKA (DSF) for COc1cc2c(cc1OCCCN1CCCC1)N=C(N)C21CCC1 [A‐366] .
Marked response: not
